Molecular target: T1, IL-18 binding protein (IL-18BP) (UniProt O95998 31-194); note: unit not given here
T1 sequence (looked up): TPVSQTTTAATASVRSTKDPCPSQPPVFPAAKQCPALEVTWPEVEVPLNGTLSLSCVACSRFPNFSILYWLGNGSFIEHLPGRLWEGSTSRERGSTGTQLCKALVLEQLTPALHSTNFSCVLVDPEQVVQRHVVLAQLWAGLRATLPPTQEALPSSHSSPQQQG
Test: cell-based or functional assay
Quick list: Activity, +100 nM BP, DF-5000003 per entry.

May I ask what Activity, +100 nM BP, DF-5000003 has been recorded for IL-18 variant G3L, E6Q, D54Y, S55P, T63S, N91S, R104Q (ligand) YFLKLQSKLSVIRNLNDQVLFIDQGNRPLFEDMTDSDMRDNAPRTIFIISMYKYPQPRGMAVSISVKSEKISTLSSENKIISFKEMNPPDSIKDTKSDIIFFQQSVPGHDNKMQFESSSYEGYFLASEKERDLFKLILKKEDELGDRSIMFTVQNED ? 0.19

Which Activity, +100 nM BP, DF-5000003 is reported for this binder? IL-18 variant G3L, E6N, I22M, T63V, N91T, R104P (ligand) YFLKLNSKLSVIRNLNDQVLFMDQGNRPLFEDMTDSDMRDNAPRTIFIISMYKDSQPRGMAVVISVKSEKISTLSSENKIISFKEMNPPDTIKDTKSDIIFFQPSVPGHDNKMQFESSSYEGYFLASEKERDLFKLILKKEDELGDRSIMFTVQNED 0.09
